Measurement target: T1, human IL-17F (human, UniProt Q96PD4 31-163, biotinylated with Sulfo-NHS-LC-Biotin in the AlphaScreen assays only)
T1 construct: also called hIL-17F; recombinant human IL-17F
T1 sequence: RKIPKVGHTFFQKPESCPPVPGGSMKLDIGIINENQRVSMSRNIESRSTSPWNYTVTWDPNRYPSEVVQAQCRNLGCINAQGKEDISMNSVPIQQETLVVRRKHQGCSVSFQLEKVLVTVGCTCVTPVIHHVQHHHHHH
Protocol description: AlphaScreen competition, hIL-17F - IL-17RC-Fc
// reported IC50 per item

{"columns": ["Binder", "Unit text", "IC50"],
 "data": [
  ["18B05 (VHH, Class 4 Nanobody (cross-reactive: anti-IL-17A, IL-17F and IL-17A/F); not shown: c-myc, His6 tag) VHH: EVQLVKSGGGLVQPGGSLRLSCAASGGTFSLFAMGWFREAPGKEREFVAAIRWSDGSSYYADSVKGRFTISRDNAKNAVHLQSNSLKSEDTAVYYCYADVQGGLHRYWGQGTQVTVSS", "nM", 13.3],
  ["09D10 (VHH, Class 2 Nanobody (anti-IL-17A and IL-17A/F); not shown: c-myc, His6 tag) VHH: EVQLVESGGGLVQAGGSLSLSCAASGSVFRIDVMRWHRQAPGKQREFLASIASGGTTNYADSVKGRFTISRDNAKNTVYLQMNSLKPEDTAVYYCGANAESGPYTYWGLGTQVTVSS", "nM", 69.4],
  ["13E02 (VHH, Class 4 Nanobody (cross-reactive: anti-IL-17A, IL-17F and IL-17A/F); also called IL17MS13E02; not shown: c-myc, His6 tag) VHH: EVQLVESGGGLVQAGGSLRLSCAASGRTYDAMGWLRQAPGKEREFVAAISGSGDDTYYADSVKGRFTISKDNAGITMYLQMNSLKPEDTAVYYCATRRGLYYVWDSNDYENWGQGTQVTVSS", "nM", 0.214],
  ["17C01 (VHH, Class 4 Nanobody (cross-reactive: anti-IL-17A, IL-17F and IL-17A/F); not shown: c-myc, His6 tag) VHH: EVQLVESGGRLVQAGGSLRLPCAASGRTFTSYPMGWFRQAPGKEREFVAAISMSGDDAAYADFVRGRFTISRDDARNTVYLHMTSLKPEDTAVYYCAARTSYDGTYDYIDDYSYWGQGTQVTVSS", "nM", 0.168]
]}

src = patent US20210130452A1
